# Tested on: MM1.S cells
# Test protocol: MM1.S cell proliferation, 72 hours (Cell Titer Glo)
# Assay type: cell-based
# Experimental context: Homo sapiens, Table 3, read-out: MM1.s
Recorded endpoint: EC50 (nM)
Give just the numeric value; nM need not be written.

Exam item: Looking for the measured EC50 of `Nc1sc(-c2c(F)cccc2F)nc1C(=O)Nc1cnccc1N1CCC[C@H](N)C1` , can you help?
Marked response: 200

====

What follows is a record of Ki for PIM2 (Homo sapiens, UniProt Q9P1W9).
Recorded endpoint: Ki (nM)

Reference set, count: 3
Nc1sc(C2CCCNC2)nc1C(=O)Nc1cnccc1N1CCCC(N)C1 (stereo not drawn) [Example 65] | 97.1
Nc1sc(-c2cn[nH]c2)nc1C(=O)Nc1cnccc1N1CCC[C@H](N)C1 [Example 56] | 0.666
Nc1sc(-c2ccccn2)nc1C(=O)Nc1cnccc1N1CCC[C@H](N)C1 [Example 9] | 0.16

[a] Nc1sc(-c2cc(Cl)ccc2F)nc1C(=O)Nc1cnccc1N1CCC[C@H](N)C1 [Example 23]
[b] Nc1sc(C2CCNC2)nc1C(=O)Nc1cnccc1N1CCCC(N)C1 (stereo not drawn) [Example 64]
[c] Cc1ccccc1-c1nc(C(=O)Nc2cnccc2N2CCC[C@H](N)C2)c(N)s1 [Example 40]
[d] NC(=O)c1cccc(-c2nc(C(=O)Nc3cnccc3N3CCC[C@H](N)C3)c(N)s2)c1 [Example 22]
Exam item: # rank by Ki, ascending (min first) API: response body holds the labels in the requested order.
Marked response: a, d, c, b

[1] Nc1sc(-c2ccccc2)nc1C(=O)Nc1cnccc1N1CCC[C@H](N)C1 [Example 7]
[2] Nc1sc(-c2ccccc2F)nc1C(=O)Nc1cnccc1N1C[C@@H](N)C[C@@H](F)C1 [Example 62]
Exam item: Form: Entry with minimum Ki (choose one): 1 / 2 Label of pick, please.
Marked response: 1
(1: 0.203 nM, 2: 8.87 nM)
